study-system: T1, human PILRA, c-term His-Avi tag (human, UniProt Q9UKJ1 20-197, limits assumed)
T1 construct: not shown: C-terminal His-Avi tag
T1 sequence (Q9UKJ1 20-197 limits assumed): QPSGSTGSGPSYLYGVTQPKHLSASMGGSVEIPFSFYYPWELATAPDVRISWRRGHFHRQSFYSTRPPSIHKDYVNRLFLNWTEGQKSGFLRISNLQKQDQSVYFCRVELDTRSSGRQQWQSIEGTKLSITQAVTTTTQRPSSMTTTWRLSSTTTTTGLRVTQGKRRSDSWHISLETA
test: SPR (Biacore), antibody captured, PILRA as analyte
Experimental: Experiments were performed to determine the kinetics of anti-PILRA antibody binding to human […]. The assay is depicted in FIG. 6. A rabbit anti-PILRA was used as a positive control, and H1 LALAPS was used as a negative control. Human PILRA (human PILRA, c-term His-Avi tag, 0.68 mg/mi) was used as the antigen. The running buffer was HBSTE/0.5% BSA, pH 7.4, and the regeneration solution was 10 mM glycine-HCl (pH 2.1). […]
In this section we review reported Kd values for a set of binders.
Write down the numeric answer in nM and omit the unit.

[Q] Entry under review: E15 (antibody, V domains shown, B-cell cloning campaign (mice)) VH: QVQLQQSGAELVKPGASVKLSCKASGNTFTIYDINWVRQRPEQGLEWIGWIFPGDGSTKYNGKFKGKATLTTDKSSSTAYMQLSRLTSEDSAVYFCARRAHYYGSSFDYWGQGTTLTVSS VL: DIQMTQSSSYLSVSLGGRVTITCKASDHINNWLAWYQQKPGNGPRLLISGAISLEIGVPSRFSGSGSGKEYTLSITSLQTEDVATYYCQQYWSPPWTFGGGTKLEIK . Reported Kd?
[A] 31.3

[Q] Dear colleague, I am looking for the recorded Kd of the following binder: hPA-004 (antibody, V domains shown) VH: QVTLKESGPGMLQPSQTLSLACSFSGFSLNSFGVAVGWIRQPSGKGLEWLAHIWWDDDKSYNPALKSRLTISKDTSKNQVFLKLANVDTADTATYYCTRIADYGNHFDYWGQGTALTVSS VL: DIQMNQSPSSLSASLGDTITITCHASQNSHVWLSWYQQKPGNIPKLLIYKASNLHTGVPSRFSGSGSGTGFTLTISGLQPEDIATYYCQQGQTYPFTFGSGTKLEIK
[A] 9

[Q] Find the recorded Kd belonging to C3 (antibody, V domains shown, first hybridoma campaign) VH: EVHLQQSGPELVKPGASVKISCKASGYTFTDYYLNWVKLSLGKSLEWIGDINPNDGDTSYNQTFKGKATLTVDKSSSTAYMELRSLTSEDSAVYYCARRASSYYSNYGWYFDVWGTGTTVTVSS VL: DILLTQSPAILSVSPGERVSFSCRASQSIGTSIHWYQQRTNGSPRLLIKFASESISGIPSRFSGSGSGTDFTLSINTVESEDIGDYYCQESNSWPTTFGAGTKLELK and report it.
[A] 8.3

[Q] I'd like to know its Kd. The binder in question is C1 (antibody, V domains shown, first hybridoma campaign) VH: QIQLVQSGPELKKPGETVKISCKASGYTFTTYGMSWVKQAPGKGLKWMGWINTYSGVPTYADDFQGRFAFSLETSASTAYLQINNLKNEDTAPYFCVRDGYAAPYWGQGTLVTVSA VL: NIMMTQSPSSLAVSAGEKVTMRCKSSQSVLYSSNQKNYLAWYQQKPGQSPKLLIYWASTRESGVPDRFTGSGSGTDFTLTISSVQAEDLAVYYCHQYLSSWTFGGGTKLEIK
[A] 45

[Q] Given A2 (antibody, V domains shown, phage campaign) VH: EVQLLESGGGLVKPGGSLRLSCAASGFTFSDYYMSWVRQAPGKGLEWVSSISIGGGGTYYADSVKGRFTISRDDSKNTLYLQMNSLRAEDTAVYYCASHGFGARKMDFWGQGTTVTVSS VL: DIQMTQSPSSLSASVGDRVTITCRASQSIRSYVNWYQQKPGKAPKLLIYDASNLETGVPSRFSGSGSGTDFTLTISSLQPEDFATYYCQQSYSPPITFGQGTKVEIK , state its recorded Kd.
[A] 193
